Biological target: P2X purinoceptor 3 (Rattus norvegicus, UniProt P49654)
Sequence (P49654 whole entry): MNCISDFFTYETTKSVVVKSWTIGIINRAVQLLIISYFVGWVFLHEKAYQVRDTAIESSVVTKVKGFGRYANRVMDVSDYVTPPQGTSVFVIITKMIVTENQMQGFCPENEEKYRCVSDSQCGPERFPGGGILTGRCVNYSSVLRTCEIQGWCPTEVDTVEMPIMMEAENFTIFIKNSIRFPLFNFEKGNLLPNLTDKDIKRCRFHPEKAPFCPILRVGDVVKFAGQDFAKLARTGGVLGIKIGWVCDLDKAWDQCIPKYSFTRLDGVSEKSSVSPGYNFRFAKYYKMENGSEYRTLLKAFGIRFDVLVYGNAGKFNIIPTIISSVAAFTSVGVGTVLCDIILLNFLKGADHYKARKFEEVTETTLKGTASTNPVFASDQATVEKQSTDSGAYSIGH
Test: Antagonist activity at rat P2X3 receptor expressed in CHO cells
Format: functional, cell-based
pIC50: −log10 of the molar value.
recorded-endpoint: pIC50

These recorded examples may help you get a feel for the data.
Consider CC(CN1CCN(c2ncccn2)CC1)NC(=O)c1sc(-c2ccccc2)nc1-c1ccccc1 (stereo not drawn) . Its measured pIC50 is < 5.00

Briefly, pIC50 measured for "CCCc1nc(-c2ccc(F)cc2)oc1C(=O)N[C@H](C)CN1CCN(c2ccncc2)CC1" : < 5.00

New cases:
Lookup result for CCCc1nc(-c2ccc(F)cc2)oc1COC(C)CN1CCN(c2ncccn2)CC1 (stereo not drawn) ; measured pIC50: < 5.00

###

Molecular target: P2X purinoceptor 3 (Rattus norvegicus)
Experiment: Antagonist activity at rat P2X3 receptor expressed in CHO cells
pIC50: −log10 of the molar value.
recorded-endpoint: pIC50

// CC(CN1CCN(c2ncccn2)CC1)NC(=O)c1cc(-c2ccccc2)nc(-c2ccccc2)c1 (stereo not given) : pIC50 value = 5.90

Input "CCCc1nc(-c2ccc(F)cc2)oc1C(=O)N[C@H](C)CN1CCN(c2ccncn2)CC1" . Output pIC50: 5.90

// CC(CN1CCN(c2ncccn2)CC1)NC(=O)c1oc(-c2ccccc2)nc1-c1ccccc1 (stereo not given) : pIC50 value = 5.90

Sure, the documented pIC50 for "CCCc1nc(-c2ccc(F)cc2)oc1C(=O)N[C@H](C)CN1CCN(C(N)=O)CC1" is 6.00

Memo: CC(CN1CCN(c2ncccn2)CC1)NC(=O)c1cc(-c2ccccc2)n(-c2ccccc2)n1 (stereo not given) , reported pIC50: 5.90
